Origin of the recorded values: the supplement of paper PMC10307832

- Tested on: EPLC-272H
- test-summary: relative viability (nuclei count vs DMSO), 5 days (fraction); higher = more cells survive
- recorded-conditions: first compound 0.1581 µM
endpoint-name: relative viability
Enter a number only.

Consider the reported relative viability for these compounds:
CC1(C)CCC(c2ccc(Cl)cc2)=C(CN2CCN(c3ccc(C(=O)NS(=O)(=O)c4ccc(N[C@H](CCN5CCOCC5)CSc5ccccc5)c(S(=O)(=O)C(F)(F)F)c4)cc3)CC2)C1 [Navitoclax] + O=C(CCCCCCC(=O)Nc1ccccc1)NO [Vorinostat] (partner 1 µM)
0.385
CC1(C)CCC(c2ccc(Cl)cc2)=C(CN2CCN(c3ccc(C(=O)NS(=O)(=O)c4ccc(N[C@H](CCN5CCOCC5)CSc5ccccc5)c(S(=O)(=O)C(F)(F)F)c4)cc3)CC2)C1 [Navitoclax] + O=C(c1cc(Cc2n[nH]c(=O)c3ccccc23)ccc1F)N1CCN(C(=O)C2CC2)CC1 [Olaparib] (partner 8 µM)
0.714
CC1(C)CCC(c2ccc(Cl)cc2)=C(CN2CCN(c3ccc(C(=O)NS(=O)(=O)c4ccc(N[C@H](CCN5CCOCC5)CSc5ccccc5)c(S(=O)(=O)C(F)(F)F)c4)cc3)CC2)C1 [Navitoclax] + C[C@]1(O)C[C@@H](c2nc(-c3ccc4ccc(-c5ccccc5)nc4c3)c3c(N)nccn32)C1 [Linsitinib] (partner 1 µM)
1.26
CC1(C)CCC(c2ccc(Cl)cc2)=C(CN2CCN(c3ccc(C(=O)NS(=O)(=O)c4ccc(N[C@H](CCN5CCOCC5)CSc5ccccc5)c(S(=O)(=O)C(F)(F)F)c4)cc3)CC2)C1 [Navitoclax] + CC(=O)c1c(C)c2cnc(Nc3ccc(N4CCNCC4)cn3)nc2n(C2CCCC2)c1=O [Palbociclib] (partner 0.5 µM)
0.31

Now look at this entry.
For CC1(C)CCC(c2ccc(Cl)cc2)=C(CN2CCN(c3ccc(C(=O)NS(=O)(=O)c4ccc(N[C@H](CCN5CCOCC5)CSc5ccccc5)c(S(=O)(=O)C(F)(F)F)c4)cc3)CC2)C1 [Navitoclax] + N=C(N)NC(=N)NCCc1ccccc1 [Phenformin] (partner 250 µM) , what is its reported relative viability? 0.329
